Target: C-Raf (Homo sapiens (Human), UniProt P04049)
Sequence (P04049 whole entry): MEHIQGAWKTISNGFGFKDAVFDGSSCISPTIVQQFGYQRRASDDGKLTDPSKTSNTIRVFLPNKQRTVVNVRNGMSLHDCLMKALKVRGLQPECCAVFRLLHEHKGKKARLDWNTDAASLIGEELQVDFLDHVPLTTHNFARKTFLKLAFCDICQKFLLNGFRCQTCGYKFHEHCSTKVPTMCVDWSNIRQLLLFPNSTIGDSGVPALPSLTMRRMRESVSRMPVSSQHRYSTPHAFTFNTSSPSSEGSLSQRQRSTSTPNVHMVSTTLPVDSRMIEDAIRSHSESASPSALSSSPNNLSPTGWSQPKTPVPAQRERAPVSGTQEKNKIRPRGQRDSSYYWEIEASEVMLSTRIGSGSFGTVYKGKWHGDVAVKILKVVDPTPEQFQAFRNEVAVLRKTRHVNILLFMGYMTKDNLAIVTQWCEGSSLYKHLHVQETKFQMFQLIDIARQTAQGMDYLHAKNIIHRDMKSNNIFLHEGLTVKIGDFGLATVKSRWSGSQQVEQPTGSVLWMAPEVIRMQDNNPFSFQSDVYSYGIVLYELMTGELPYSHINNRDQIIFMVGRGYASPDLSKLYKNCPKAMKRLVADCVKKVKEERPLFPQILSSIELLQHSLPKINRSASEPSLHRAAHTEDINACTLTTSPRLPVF
Assay: Raf kinase assay (C-Raf), [33P] incorporation into MEK1(K97R)
Format: biochemical
Parameter: IC50 (nM)
The response must be a number in nM with no trailing unit.

INPUT: Return value of IC50 for input "COc1cc(-c2ccc3ncnc(Nc4ccc(C)cc4F)c3c2)ccc1O" , no commentary.
OUTPUT: 1910

INPUT: Entry "Fc1ccccc1-c1ccc2nccc(Nc3cccc4[nH]ncc34)c2c1" needs its IC50 filled in; supply it.
OUTPUT: 1030

INPUT: // fetch IC50 given entry "COc1ccc(-c2ccc3ncnc(Nc4cccc5[nH]ncc45)c3c2)cc1OC"
OUTPUT: 869

INPUT: Specify measured IC50 for "COc1cccc(-c2ccc3ncnc(Nc4cccc5[nH]ncc45)c3c2)c1F" .
OUTPUT: 751

INPUT: Determine its reported IC50: "c1cc(Nc2ncnc3ccc(-c4ccc5c(c4)OCO5)cc23)c2cn[nH]c2c1"
OUTPUT: 568

INPUT: Read off the recorded IC50 for "COc1cc(-c2ccc3ncnc(Nc4ccc(Cl)c(O)c4)c3c2)ccc1O"
OUTPUT: 161

INPUT: Please look at this compound and report its IC50: "CS(=O)(=O)Nc1cccc(-c2ccc3ncnc(Nc4cccc(O)c4)c3c2)c1"
OUTPUT: 861

INPUT: Name the recorded IC50 of the compound listed here: "COc1cc(-c2ccc3ncnc(Nc4cc(O)ccc4F)c3c2)ccc1O"
OUTPUT: 170

INPUT: Entry "COc1cc(-c2ccc3ncnc(Nc4cccc(S(N)(=O)=O)c4)c3c2)ccc1O" needs its IC50 filled in; supply it.
OUTPUT: 887

INPUT: In one line, give reported IC50 of the entry "c1cc(Nc2ncnc3ccc(-c4ccc5[nH]ncc5c4)cc23)c2cn[nH]c2c1" .
OUTPUT: 723

INPUT: Supply reported IC50 belonging to this compound: "CS(=O)(=O)c1ccc(-c2ccc3nccc(Nc4cccc5[nH]ncc45)c3c2)cc1"
OUTPUT: 277

INPUT: For the compound "COc1cc2ncnc(Nc3cccc(O)c3)c2cc1-c1ccc(O)cc1" , give its measured IC50 value.
OUTPUT: 790

INPUT: Report IC50 for "CCS(=O)(=O)Nc1cccc(-c2ccc3ncnc(Nc4cccc5[nH]ncc45)c3c2)c1"
OUTPUT: 680

INPUT: State its IC50 for this compound: "CN(C)c1ccc(-c2ccc3ncnc(Nc4cccc(O)c4)c3c2)cc1"
OUTPUT: 3190

INPUT: Note IC50 for the compound shown: "COc1cc(-c2ccc3ncnc(Nc4cccc(O)c4C)c3c2)ccc1O"
OUTPUT: 500

INPUT: Please indicate IC50 recorded for "COc1cc(-c2ccc3ncnc(Nc4cccc5[nH]ncc45)c3c2)ccc1F"
OUTPUT: 757

INPUT: In one line, give reported IC50 of the entry "COc1cc2ncnc(Nc3cccc(O)c3)c2cc1-c1ccc(N)cc1" .
OUTPUT: 860

INPUT: Recall and state the measured IC50 for "COc1cc(-c2ccc3ncnc(Nc4ccc(C(=O)O)cc4O)c3c2)ccc1O" .
OUTPUT: 580
